B1: TPR 5TU (parent)
chain: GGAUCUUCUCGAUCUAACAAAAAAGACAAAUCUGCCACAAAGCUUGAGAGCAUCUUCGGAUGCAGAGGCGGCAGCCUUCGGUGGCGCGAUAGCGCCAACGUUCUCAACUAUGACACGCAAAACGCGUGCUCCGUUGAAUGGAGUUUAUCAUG

- Variants of: B1
- Experiment Description: polymerase ribozyme fitness, log enrichment relative to wild type (log ratio); higher = more active; in vitro selection for triplet polymerase activity
Fewer inactive variants are shown than the library holds.
Result Type: polymerase ribozyme fitness (log ratio)

See these solved cases before continuing.
{"Variant": "G42A C116G A150U", "polymerase ribozyme fitness (log ratio)": "≤ -4.2"}
{"Variant": "C93A G100C C118G A138G", "polymerase ribozyme fitness (log ratio)": "≤ -4.2"}
{"Variant": "G71U C72A A91G C116A A138U", "polymerase ribozyme fitness (log ratio)": "≤ -4.2"}

Batch of 8 variants: report polymerase ribozyme fitness (log ratio) for each.
1. C63A C76G C85U C96U A97G C116G
2. U78G U127C
3. C87U A91U A98G A138G G152A
4. U4G A21C C93G
5. C36G C87G A91C A98U C114U A119U A122G
6. A73U G80A C93U U146G
7. C10A U33A U78G U90A G140A
8. A17C A23U U104C

Solution:
["≤ -4.2", "≤ -4.2", "≤ -4.2", -1.92, "≤ -4.2", -3.03, "≤ -4.2", "≤ -4.2"]

These entries and their values trace back to the RNAGym collection of RNA variant scans (doi:10.1073/pnas.2313332121).
